Here, each record is paired with measured EC50 data.
Biological target: T1, recombinant cynomolgus macaque VISTA (His-tagged) (cynomolgus macaque, UniProt A0A7N9IB00 33-194)
T1 construct: also called cyno VISTA; cynomolgus monkey VISTA
Assay: ELISA, plate coated with cyno VISTA
Just the number in nM, nothing appended.

A selection of reference data follows.
binder	recordedValue
anti-VISTA clone V4-C30 IgG1 (antibody, V domains shown) VH: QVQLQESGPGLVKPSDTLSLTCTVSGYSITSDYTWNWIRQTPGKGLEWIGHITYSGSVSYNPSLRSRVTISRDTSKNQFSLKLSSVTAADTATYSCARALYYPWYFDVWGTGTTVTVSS VL: EIVLTQSPATLSLSPGERATLSCRASSSVGYIHWYQQKPGQAPRPLIYATYYRATGIPARFSGSGSGTDNTLTISSLEPEDSAVYYCQQWSSYPPITFGGGTKLEVKR	0.0272
anti-VISTA clone V4-C24 IgG1 (antibody, V domains shown) VH: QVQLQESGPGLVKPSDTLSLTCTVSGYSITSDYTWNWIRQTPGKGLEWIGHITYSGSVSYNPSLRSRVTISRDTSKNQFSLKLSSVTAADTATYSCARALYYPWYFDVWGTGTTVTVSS VL: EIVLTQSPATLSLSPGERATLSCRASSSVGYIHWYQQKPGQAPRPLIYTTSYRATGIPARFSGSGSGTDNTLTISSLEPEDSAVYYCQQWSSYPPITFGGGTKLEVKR	0.0385

Shifting focus to the binder that follows.
Entry under review: anti-VISTA clone V4-C27 IgG1 (antibody, V domains shown) VH: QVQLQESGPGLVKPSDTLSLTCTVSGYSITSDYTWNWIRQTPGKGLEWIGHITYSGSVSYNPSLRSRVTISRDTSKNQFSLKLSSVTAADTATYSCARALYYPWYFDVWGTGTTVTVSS VL: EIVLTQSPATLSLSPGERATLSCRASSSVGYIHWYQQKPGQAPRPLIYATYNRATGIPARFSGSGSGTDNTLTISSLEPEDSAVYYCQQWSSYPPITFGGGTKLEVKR . Reported EC50? 0.0324
